molecular target: CYP19 (Homo sapiens, UniProt P11511); assay: Inhibition of CYP19 in human placental microsomes at 500 nM using [1beta-3H]androstenedione as substrate; design: species or system Placenta; details: probe [1beta-3H]androstenedione
Sequence (P11511 whole entry): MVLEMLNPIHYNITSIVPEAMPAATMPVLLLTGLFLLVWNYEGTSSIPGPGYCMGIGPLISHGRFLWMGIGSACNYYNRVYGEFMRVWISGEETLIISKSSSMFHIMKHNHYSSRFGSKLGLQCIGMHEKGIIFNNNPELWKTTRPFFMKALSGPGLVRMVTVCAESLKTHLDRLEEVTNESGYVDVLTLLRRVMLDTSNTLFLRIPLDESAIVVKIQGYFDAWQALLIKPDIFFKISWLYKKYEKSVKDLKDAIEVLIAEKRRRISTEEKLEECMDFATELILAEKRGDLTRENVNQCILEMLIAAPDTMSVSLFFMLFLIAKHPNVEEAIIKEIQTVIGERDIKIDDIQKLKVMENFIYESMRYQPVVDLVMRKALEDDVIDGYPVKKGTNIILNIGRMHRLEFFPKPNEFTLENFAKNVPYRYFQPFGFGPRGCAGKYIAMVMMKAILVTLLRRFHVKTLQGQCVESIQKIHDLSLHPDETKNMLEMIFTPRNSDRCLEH
Assay Readout: inhibition at 0.5 µM

Compound Smiles | Tested System | Assay Readout | Value Reported
CC(=O)N1CCc2cc(-c3cncc(F)c3)ccc21 | CYP19 (Homo sapiens, UniProt P11511) | inhibition at 0.5 µM | < 7%

Notebook: `CC(=O)n1ccc2cc(-c3cccnc3)ccc21` , inhibition at 0.5 µM read as < 7%

Looking up `CC(=O)N1CCc2cc(-c3cnccc3C)ccc21` , I found its inhibition at 0.5 µM recorded as < 7%

For reference, reported inhibition at 0.5 µM for `CC(C)C(=O)N1CCc2cc(-c3cncc4ccccc34)ccc21` stands at < 7%

// `COc1cncc(-c2ccc3c(c2)CCN3C(C)=O)c1` : inhibition at 0.5 µM value = < 7%

Value of inhibition at 0.5 µM reported for the compound `O=C(C1CC1)N1CCc2cc(-c3cncc4ccccc34)ccc21` is < 7%

Entry `CCC(=O)N1CCc2cc(-c3cccnc3)ccc21` — recorded inhibition at 0.5 µM = < 7%

Form: compound = `CCC(=O)N1CCc2cc(-c3cncc4ccccc34)ccc21` ; inhibition at 0.5 µM = < 7%

###

target: CYP11B1 (Homo sapiens); assay: Inhibition of human CYP11B1 expressed in hamster V79MZh cells using deoxycorticosterone as substrate at 500 nM; type: cell-based; details: hamster V79MZh cells expressing human CYP11B1, probe deoxycorticosterone
Sequence (P15538 whole entry): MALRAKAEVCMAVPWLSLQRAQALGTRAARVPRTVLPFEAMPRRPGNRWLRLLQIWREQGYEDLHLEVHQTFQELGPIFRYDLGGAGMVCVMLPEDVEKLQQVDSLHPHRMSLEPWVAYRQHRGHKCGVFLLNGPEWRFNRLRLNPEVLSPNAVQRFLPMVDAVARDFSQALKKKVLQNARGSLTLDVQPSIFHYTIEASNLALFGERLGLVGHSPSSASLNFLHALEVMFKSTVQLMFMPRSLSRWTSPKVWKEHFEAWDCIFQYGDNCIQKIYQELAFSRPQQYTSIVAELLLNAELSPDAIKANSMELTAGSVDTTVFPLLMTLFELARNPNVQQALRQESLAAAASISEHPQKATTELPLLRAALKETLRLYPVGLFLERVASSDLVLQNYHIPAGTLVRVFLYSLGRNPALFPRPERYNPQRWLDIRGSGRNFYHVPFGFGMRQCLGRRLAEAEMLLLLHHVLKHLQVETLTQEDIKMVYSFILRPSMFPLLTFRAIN
Assay Readout: inhibition (%)

[1] CC(=O)n1ccc2cc(-c3cccnc3)ccc21
[2] CC(=O)N1CCc2cc(-c3cncc(F)c3)ccc21
[3] CCC(=O)N1CCc2cc(-c3cncc4ccccc34)ccc21
Parameters: sort_field (inhibition), sort_dir (desc). # answer = labels listed in requested order 3, 1, 2
(3: 39%, 1: 25%, 2: 11%)

###

molecular target: Cytochrome P450 3A4 (Homo sapiens, UniProt P08684); test: Inhibition of CYP3A4 using recombinant human CYP enzyme at a single time point by LC-MS/MS analysis
Sequence (P08684 whole entry): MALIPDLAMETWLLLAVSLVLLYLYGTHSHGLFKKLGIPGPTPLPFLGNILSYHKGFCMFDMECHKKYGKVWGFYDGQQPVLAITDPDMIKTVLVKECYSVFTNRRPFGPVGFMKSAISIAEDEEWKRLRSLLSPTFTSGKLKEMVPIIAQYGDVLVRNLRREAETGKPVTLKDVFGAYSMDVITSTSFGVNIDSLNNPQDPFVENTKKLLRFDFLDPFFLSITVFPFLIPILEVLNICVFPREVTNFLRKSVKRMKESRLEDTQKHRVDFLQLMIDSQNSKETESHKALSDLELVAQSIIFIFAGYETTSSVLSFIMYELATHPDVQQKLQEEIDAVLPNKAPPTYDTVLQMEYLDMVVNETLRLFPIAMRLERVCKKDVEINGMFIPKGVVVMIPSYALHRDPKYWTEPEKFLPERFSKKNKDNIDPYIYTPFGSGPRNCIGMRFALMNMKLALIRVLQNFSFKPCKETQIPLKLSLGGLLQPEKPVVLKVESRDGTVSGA
pIC50: −log10 of the molar value.
Assay Readout: pIC50

Compound Smiles | pIC50
CC(=O)N1CCc2cc(-c3cnccc3C)ccc21 | < 4.30

# pIC50 measured on Cytochrome P450 3A4 (Homo sapiens, UniProt P08684) for item `CCC(=O)N1CCc2cc(-c3cncc4ccccc34)ccc21` = < 4.30

###

target: CYP11B1 (Homo sapiens); experiment: Inhibition of human CYP11B1 expressed in hamster V79MZh cells using deoxycorticosterone as substrate at 500 nM; format: cell-based; conditions: hamster V79MZh cells expressing human CYP11B1, probe deoxycorticosterone
Assay Readout: inhibition (%)

Compound Smiles | Value Reported
CC(C)C(=O)N1CCc2cc(-c3cncc4ccccc34)ccc21 | 11

[1] O=C(Cc1ccccc1)N1CCc2cc(-c3cccnc3)ccc21
[2] CC(=O)N1CCc2cc(-c3cnccc3C)ccc21
[3] CCC(=O)N1CCc2cc(-c3cccnc3)ccc21
Hey, quick one: sort these by inhibition, largest value first please. Write the labels out in the order the request specifies. 2, 1, 3
(2: 70%, 1: 26%, 3: 0.8%)

[I] O=C(C1CC1)N1CCc2cc(-c3cncc4ccccc34)ccc21
[II] COc1ccc(C(=O)N2CCc3cc(-c4cccnc4)ccc32)cc1
[III] COc1cncc(-c2ccc3c(c2)CCN3C(C)=O)c1
[IV] O=C(CCCl)N1CCc2cc(-c3cccnc3)ccc21
# rank_down: sort by inhibition, max first Please, when replying, give the labels in the order that was requested. III, I, IV, II
